B1: Tyrosine-protein kinase Lck, residues 63 to 120; numbered along this chain, P06239 (parent)
chain: DNLVIALHSYEPSHDGDLGFEKGEQLRILEQSGEWWKAQSLTTGQEGFIPFNFVAKAN

Variants of: B1
Test: abundance fitness (aPCA) (normalised: wild type 0, dead -1); higher = more abundant; growth selection in yeast, the domain comes from the species named
Settings: Homo sapiens
OBSERVABLE: abundance fitness
Keep it simple and answer with nothing but the number.

Data request: Report abundance fitness for `F48Q` please.
Data returned: -0.274

Data request: Report abundance fitness for `N2G` please.
Data returned: -0.428

Data request: Report abundance fitness for `G33E` please.
Data returned: -0.491

Data request: Report abundance fitness for `L7K` please.
Data returned: -0.232

Data request: Report abundance fitness for `T42F` please.
Data returned: -0.305

Data request: Report abundance fitness for `E11I` please.
Data returned: -0.177

Data request: Report abundance fitness for `L18H` please.
Data returned: -0.732

Data request: Report abundance fitness for `F48V` please.
Data returned: -0.096

Data request: Report abundance fitness for `A57C` please.
Data returned: -0.244

Data request: Report abundance fitness for `T43E` please.
Data returned: -0.643

Data request: Report abundance fitness for `N2D` please.
Data returned: -0.193

Data request: Report abundance fitness for `K56W` please.
Data returned: -0.095

Data request: Report abundance fitness for `Q39N` please.
Data returned: -0.868

Data request: Report abundance fitness for `H8A` please.
Data returned: -0.067

Data request: Report abundance fitness for `P12L` please.
Data returned: -0.913

Data request: Report abundance fitness for `L3Y` please.
Data returned: -0.113

Data request: Report abundance fitness for `V4A` please.
Data returned: 0.123

Data request: Report abundance fitness for `P50N` please.
Data returned: -0.652

Data request: Report abundance fitness for `F48P` please.
Data returned: -0.52

Data request: Report abundance fitness for `K56Q` please.
Data returned: -0.174

Data request: Report abundance fitness for `E11D` please.
Data returned: -0.116

Data request: Report abundance fitness for `H8T` please.
Data returned: -0.012
